Listing of recorded cytotoxicity at 10 µM by entry.
# experiment_description: Toxicity liver stage against HepG2, at 10uM
# Format: cell-based
# Parameters: test concentration 10 uM, cell line HepG2-A16-CD81EGFP
# test_context: human, HepG2-A16-CD81EGFP cells; read-out: INHIBITION
readout_type: cytotoxicity at 10 µM (%)

COc1ccc(C(C)N(C)Cc2c(C(C)C)[nH]c3ncccc23)cc1 (stereo unspecified)	-7.99
CCCC(=O)NCCCn1ncc2c(C)cccc21	8.6
COc1ccc(C(=O)N(C)Cc2c(C)noc2C)cn1	-12.9
CCC(CC)(CC)NC(=O)Nc1nnc(-c2ccccn2)s1	-2.27
COc1cccc(F)c1C(=O)N1C[C@@H](CN(C)CCO)[C@@H](CO)C1	-5.88
Cc1ncsc1C(=O)N1CCc2nnc(C3CCCCN3C)n2CC1 (stereo unspecified)	3.3
COc1ccccc1-c1ncc(CN2CCCC[C@H](N(C)C)C2)s1	-5.23
CCOCC(O)CN1CCN(C(=O)c2ccc(OC)cc2F)CC1 (stereo unspecified)	-11.9
COc1cccc(OCCNS(=O)(=O)Cc2ccccc2)c1	-15.7
CCN(CC)C(=O)CSc1nc2c(cnn2CCO)c(=O)[nH]1	1.29
NC(=O)C1CCN(CCCNC(=O)Nc2nncs2)CC1	-0.165

* * *

# experiment_description: Toxicity liver stage against HepG2, at 10uM
# Format: cell-based
# Set-up: test concentration 10 uM, cell line HepG2-A16-CD81EGFP
# test_context: human, HepG2-A16-CD81EGFP cells; read-out: INHIBITION
readout_type: cytotoxicity at 10 µM (%)

Cc1ccc(C(=O)NC2CCCN(C)C2)c(=O)[nH]1 (configuration not stated)	-6.96
CCN1CCc2nc(N3CCOCC3)nc(NC(C)C)c2C1	-112
CCCNC(=O)Cn1c(C)nn(C(C)(C)C)c1=O	4.62
CCCN(CC1CC1)C(=O)Nc1ccc(N2CCSCC2)cc1C	3.05
Cc1cnn(CC2CCCN2C(=O)c2cn(-c3ccccc3)nc2C)c1 (configuration not stated)	-9.39
COc1cc(C(=O)NCc2ccc3c(c2)CCCN3C)cc(OC)c1Br	-6.69
O=C(N1CCC2(CC1)[C@H](O)C[C@@H]2O)C1(c2ccccc2F)CC1	6.1
CC(C)c1noc(CCC(=O)NC2CCS(=O)(=O)C2)n1 (configuration not stated)	-15.6
O=C(Cc1cccnc1)N1CCC2(CCN(CC3CCCCC3)C2)CC1	-1.28
CC1N(CC2CC2)C(=O)COC12CCN(Cc1nccs1)CC2 (configuration not stated)	-8.19
CC(C)C(O)CNC(=O)Nc1ccc(F)c(Cl)c1 (configuration not stated)	5.6
CC1CCN(C(=O)[C@@H]2C[C@H]3OCC[C@H]3N(Cc3ccoc3)C2)CC1	-72.5

* * *

Here the recorded cytotoxicity at 10 µM is given for each entry.
# experiment_description: Toxicity liver stage against HepG2, at 10uM
# Type: cell-based
# Parameters: test concentration 10 uM, cell line HepG2-A16-CD81EGFP
# test_context: human, HepG2-A16-CD81EGFP cells; read-out: INHIBITION
readout_type: cytotoxicity at 10 µM (%)

c1ncn(CC2CN(Cc3nc(C4CC4)no3)CCO2)n1 (centres undefined)	-8.45
Cc1ccoc1C(=O)N1CCc2ccc(=O)n(CCN(C)C)c2CC1	1.41
CCc1nc(CN2CCCN(c3ncnc4ccsc34)CC2)no1	64.5
Cc1c(CC(=O)N2CCSCC2)nnn1-c1cccc(Cl)c1	-3.89

* * *

# experiment_description: Toxicity liver stage against HepG2, at 10uM
# Type: cell-based
# Design: test concentration 10 uM, cell line HepG2-A16-CD81EGFP
# test_context: human, HepG2-A16-CD81EGFP cells; read-out: INHIBITION
Reported cytotoxicity at 10 µM by item:
readout_type: cytotoxicity at 10 µM (%)

Cc1cnc(CN2CCN(C(C)c3nc(C4CC4)no3)CC2)cn1 (stereo not drawn)	1.32
CO[C@@H]1CO[C@@]2(CCCN(S(=O)(=O)c3ccccc3)C2)C1	-79.8
CN(C)S(=O)(=O)N1C[C@H]2CC[C@@H](C1)N(Cc1ccc3c(c1)OCCO3)C2	4.52
Nc1nc2nc(C3CCCN(C(=O)c4cnccn4)C3)ccc2s1 (stereo not drawn)	-16
CCCSc1ccccc1NC(=O)N1CCN(C(=O)c2ccc[nH]2)CC1	3.99
Cn1ncc2c(NCCn3cccc3)nc(C3CCCC3)nc21	3.07
Cc1nonc1C1CCCN1CCC(=O)N1CCc2ccccc2C1 (stereo not drawn)	-11.2
CC(NC(=O)NCCN1CCCCCC1=O)c1nncn1C (stereo not drawn)	-7
COCCC(=O)N1CC[C@@H]2O[C@@H](C)C[C@H]2C1	-2.78
O=C1NCC[C@]12CN(Cc1ccsc1)C[C@H]2c1ccccc1	-142
CN1CCCc2sc(C(=O)NCc3cccnc3)nc21	14.9
CC(=O)N1CCC(c2nccnc2-c2ccc(F)c(F)c2)CC1	-19.1
COc1ccc(OCCCNC(=O)NCc2csc(C)n2)cc1	-7.54

* * *

# experiment_description: Toxicity liver stage against HepG2, at 10uM
# Type: cell-based
# Set-up: test concentration 10 uM, cell line HepG2-A16-CD81EGFP
# test_context: human, HepG2-A16-CD81EGFP cells; read-out: INHIBITION
readout_type: cytotoxicity at 10 µM (%)

CCC(C)Nc1ccc2c(c1)C1(CCOCC1)C(=O)N2c1ccccc1 (stereo unspecified)	8.7
CCOc1cc(=O)n2c(c1C(=O)OCc1ccc(OC)cc1)CCCC2	5.95
CN1CCN(C(=O)c2ccnc(N3CCOC(C(F)(F)F)C3)c2)CC1 (stereo unspecified)	-11.4
N#Cc1cccc(CN2CCCC2c2ccc[nH]2)c1 (stereo unspecified)	-11.9
COc1ccc(C(=O)NCCNC(=O)c2cncnc2C)cc1	7.98
Cc1ccoc1C(=O)N1CC[C@@H]2O[C@@H](C)C[C@H]2C1	2.26

* * *

# experiment_description: Toxicity liver stage against HepG2, at 10uM
# Assay type: cell-based
# Set-up: test concentration 10 uM, cell line HepG2-A16-CD81EGFP
# test_context: human, HepG2-A16-CD81EGFP cells; read-out: INHIBITION
// reported cytotoxicity at 10 µM per item
readout_type: cytotoxicity at 10 µM (%)

COCCOc1ccc(S(=O)(=O)Nc2cccnc2O)cc1C	4.68
N#Cc1c(F)cccc1Nc1cnn(CC(O)CN2CCOCC2)c1 (configuration not stated)	-1.47
CCc1cc(NC(=O)C2CCCN(C(=O)NCC(C)C)C2)[nH]n1 (configuration not stated)	-4.56
O=C(c1ccc(Cl)cc1)N1CCC(N2CCCCC2=O)CC1	7.3
CN1CCCC1c1ccnc(-c2ccccc2)n1 (configuration not stated)	2.77
Cc1cccnc1N1CCN(C(=O)C(C)n2ccnc2C(C)C)CC1 (configuration not stated)	-10.3
NCC(c1ccccc1)N1CCc2sccc2C1 (configuration not stated)	1.88
c1cncc(COC[C@@H]2CCC[C@]23CNCCO3)c1	-96.1
Cc1cc(NC(=O)NC(C)CN2CCN(c3ccccc3)CC2)on1 (configuration not stated)	11.5
O=C(CC1CCCC1)N1C[C@@H]2CCN(c3cccnc3)C[C@@H]2C1	4.24
COc1ccc(C(C)N2CCN(Cc3nccn3C)CC2)cc1Cl (configuration not stated)	-8.31
CC(C)(C)C(=O)NCCC1CN(Cc2ccccc2F)CCO1 (configuration not stated)	-2.05

* * *

Below is a list of entries, each paired with its recorded cytotoxicity at 10 µM value.
# experiment_description: Toxicity liver stage against HepG2, at 10uM
# Format: cell-based
# Design: test concentration 10 uM, cell line HepG2-A16-CD81EGFP
# test_context: human, HepG2-A16-CD81EGFP cells; read-out: INHIBITION
readout_type: cytotoxicity at 10 µM (%)

C=C(C)COc1ccccc1C(=O)N1CCC2(CC1)CN(C)CCN2C	-50.2
COc1ccc(C2CNCCN2C(=O)c2cccc3ncccc23)cc1 (stereo unspecified)	-8.73
Cc1cccc(C(=O)N2CCN(CCC(C)C)CC2)n1	-3.53
O=C(Cc1csc(-c2ccc(Cl)cc2)n1)NC(C(=O)O)c1ccccc1 (stereo unspecified)	4.91
CN1CCN(c2ccc(NS(=O)(=O)c3ccc(Br)s3)cc2C(=O)O)CC1	-4.5
O=C(Cc1ccsc1)N1CCc2ncc(Cn3cccn3)n2CC1	-81.5
Cc1nc(C2CCCN(C(C)C)C2)sc1Br (stereo unspecified)	-4.52
CCn1ncc2c1CCCC2NCc1cccc2c1OCO2 (stereo unspecified)	-6.43
CC(C)(C(=O)NCc1ccc(C#N)cc1)n1cc(Br)cn1	12.4
COc1ccc2c(c1)C1(CCN(Cc3ccncc3)CC1)N(C)CC2	-14.2
CC1(C)CN(C(=O)CC2CCC2)C[C@]1(C)O	-9.15
CNc1nc(C)cc(NC2CCCN(C3Cc4ccccc4C3)C2)n1 (stereo unspecified)	12.5
O=C(N1CCCC1)N1CCN(c2ccc(Cl)nn2)C(=O)C1	7.33
Cc1ccc(N2CCN(C(=O)C3CN(C)C(=O)N3)CC2=O)cc1 (stereo unspecified)	-2.61
CCn1ccc(-c2cc(NCCCOc3ccccc3C)nc(C)n2)n1	-5.28
Cc1cc(-c2ccc(=O)n(CCNC(=O)C3CC3)n2)c(C)o1	-10.2
CCCc1nnsc1C(=O)NCC(O)c1cccs1 (stereo unspecified)	4.15
NC(=O)c1cc2c(nc1CC1CCCCO1)CCC2 (stereo unspecified)	-5.4
Cc1nc(NC(=O)C(C)N2CCN(c3ncccn3)CC2)sc1C (stereo unspecified)	4.79
CC(C)CNC(=O)CNC(=O)NC(c1nccs1)C1CC1 (stereo unspecified)	-6.66
COc1ccc(C[C@H]2CN(C(=O)c3ncccn3)CC[C@@H]2OC)cc1	4.65
FC(F)(F)c1cccc(OC2CCN(Cc3c[nH]cn3)CC2)c1	-47.8
CS(=O)(=O)Nc1cccc(CNC(=O)c2cccs2)c1	3.86
CCS(=O)(=O)N1CCC2(CC1)CN(CC1CCOC1)c1ccccc12 (stereo unspecified)	-85.9
CC(C)C1CCC(N2CCN(CCS(C)(=O)=O)CC2)CC1 (stereo unspecified)	7.23
COc1ccc(C(C(=O)O)N2CCC(Cn3cccn3)CC2)cc1F (stereo unspecified)	1.81
CC(C)C(Sc1ccccc1)C(=O)N(C)Cc1nnc2n1CCC2 (stereo unspecified)	-12.5
Cc1ccc(-c2nnc(CN3CCCC(Cn4cncn4)C3)o2)cc1 (stereo unspecified)	-9.07
Cn1cc(C[C@H]2[C@H](O)CCN2C(=O)c2ccsc2)cn1	-72.6
COCCNC(=O)N1CC(Cc2ccccc2F)C1	-6.4
CCc1ccc2nc(-c3cnn(C)c3)cc(C(=O)N3CCCC3)c2c1	0.753
Cc1nc(NCC2CC2)nc2c1COCC21CCN(CC(=O)N(C)C)C1 (stereo unspecified)	-78.5
N#Cc1c(N)nc2c(c1-c1cnc(N3CCCC3)nc1)COCC2	10.5
CC(=O)NCCC1CCN(c2nc(C(C)(C)C)nc3c2cnn3C)CC1	-0.891
O=C(c1ccncc1)N1CC2(CCNCC2)c2cc(Cl)ccc21	-3.22
CCN1CCn2c(C)cnc2C12CCN(C(=O)c1ccc(Cl)cc1)CC2	1.22
